Values from paper PMC5772613

tested-target: T1, SH2 domain of Yes (UniProt P07947 158-255)
T1 construct: Yes, SH2 domain; Gift of Bruce Mayer (pGEX); 15N-labelled for NMR; also called Yes^SH2; SH2^Yes; source: E. coli BL21(DE3), purified (GST column, PreScission cleavage, second GST column, Superdex 75); not shown: GST, N-terminal, cleaved
T1 sequence (P07947 158-255): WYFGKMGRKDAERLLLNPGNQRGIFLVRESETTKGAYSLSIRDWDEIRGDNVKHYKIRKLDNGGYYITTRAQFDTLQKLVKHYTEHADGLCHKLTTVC
assay-protocol: ITC; phosphopeptide (600-750 μM, syringe) titrated into SH2 domain (50-60 μM, cell); 25 °C; 20 mM Tris, 100 mM NaCl, 0.5 mM EDTA, 1 mM TCEP; single binding site model
condition-set: both partners purified
Square brackets hold non-standard residues; d marks the D form. Ends that are not written are not given here. pY = N[C@@H](Cc1ccc(OP(=O)(O)O)cc1)C(=O)O
property: Kd (nM)
Give just the number in nM; leave the unit off.

**Query** So what's the measured Kd for this one? EV[pY]ESLPEEL (Cdc37, residues 296-305; also called phosphopeptide; source: synthetic peptide (GL Biochem)) [Phosphotyrosine-modified decapeptide EVpYESLPEEL of Cdc37 (residues 296-305)]
**Result** 410
